Please respond with reported protein stability index for every item in the list.
B1: LOXL2 (parent)
chain: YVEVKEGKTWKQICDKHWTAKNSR

- Variants of: B1
- assayName: protein stability index of a GFP-peptide fusion (GPS, HEK-293T) (PSI 1-6); higher = more stable;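 further: lentivirally expressed fusions sorted by FACS into six bins by GFP to DsRed ratio, PSI derived from sequencing read proportions per bin multiplied by bin number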
- experimentalConditions: c terminus: a fixed tail appended
Answers are plain numbers.

// input: 4 variants below; output: protein stability index for each
1. K11P
2. K8Q
3. N22C
4. K11T

1.99
3.07
1.97
2.93
